Assayed target: D(2) dopamine receptor (Mus musculus) (UniProt P61168)
Sequence (P61168 whole entry): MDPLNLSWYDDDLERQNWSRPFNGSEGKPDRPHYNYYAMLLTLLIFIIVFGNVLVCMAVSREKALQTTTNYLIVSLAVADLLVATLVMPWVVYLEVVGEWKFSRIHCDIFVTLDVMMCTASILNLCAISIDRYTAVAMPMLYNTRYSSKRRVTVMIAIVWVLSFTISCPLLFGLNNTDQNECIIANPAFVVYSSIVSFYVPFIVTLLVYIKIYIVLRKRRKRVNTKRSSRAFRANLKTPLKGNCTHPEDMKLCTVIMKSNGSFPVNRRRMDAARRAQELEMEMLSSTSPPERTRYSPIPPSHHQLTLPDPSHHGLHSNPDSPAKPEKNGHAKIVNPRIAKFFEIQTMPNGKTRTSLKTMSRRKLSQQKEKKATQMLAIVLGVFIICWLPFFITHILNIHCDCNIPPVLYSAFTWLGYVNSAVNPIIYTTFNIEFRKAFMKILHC
Assay notes: Tested in vivo for methyl phenidate-induced gnawing behavior antagonistic activity against dopamine D2 receptor in mice
Assay type: functional, organism-based
Kindly supply the reported ED50 values for the records listed here.
Respond numerically; units are µmol/kg and should not be typed.

Enquiry: Requested field: ED50. Item: `CN1CC=C(c2cn(-c3ccc(F)cc3)c3ccccc23)CC1`
Return: 1.3

Enquiry: Requested field: ED50. Item: `N#Cc1ccc2c(c1)c(C1CCN(CCN3CCNC3=O)CC1)cn2-c1ccc(F)cc1`
Return: 34

Enquiry: Requested field: ED50. Item: `OCCN1CCN(c2cn(-c3ccc(F)cc3)c3ccc(C(F)(F)F)cc23)CC1`
Return: 0.079

Enquiry: Requested field: ED50. Item: `O=C1NCCN1CCCCCCN1CCC(c2cn(-c3ccc(F)cc3)c3ccc(Cl)cc23)CC1`
Return: 2.7

Enquiry: Requested field: ED50. Item: OCCN1CCN([C@@H]2C[C@@H](c3ccc(F)cc3)c3ccc(C(F)(F)F)cc32)CC1 (racemic)
Return: 0.2

Enquiry: Requested field: ED50. Item: `O=C1NCCN1CCN1CCC(c2cn(-c3ccc(F)cc3)c3ccc(C(F)(F)F)cc23)CC1`
Return: 22

Enquiry: Requested field: ED50. Item: `O=C1NCCN1CCN1CC=C(c2cn(-c3ccc(F)cc3)c3ccc(Cl)cc23)CC1`
Return: 2
